B1: LINE1-full (parent)
chain: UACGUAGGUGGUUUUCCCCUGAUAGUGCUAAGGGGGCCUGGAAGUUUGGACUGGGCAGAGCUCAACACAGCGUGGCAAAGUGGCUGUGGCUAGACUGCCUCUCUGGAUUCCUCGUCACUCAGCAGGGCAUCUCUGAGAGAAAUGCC

variants of: B1; test: self-cleavage, relative activity (ratio to wild type); higher = more cleavage; in vitro, sequencing; the parent is a self-cleaving ribozyme
READOUT_LABEL: self-cleavage

Given A107U C113A , state its recorded self-cleavage.
1.68

Given U29C U85G , state its recorded self-cleavage.
0.28

Given A59U C63A , state its recorded self-cleavage.
0.02

Given G7U U15A , state its recorded self-cleavage.
0.97

Given U9C G21U , state its recorded self-cleavage.
1.37

Given A22G U102C , state its recorded self-cleavage.
1.04

Given U46C , state its recorded self-cleavage.
1.41

Given U12A A94U , state its recorded self-cleavage.
0.51

Given A69G G106A , state its recorded self-cleavage.
0.61

Given A94C A117C , state its recorded self-cleavage.
0.07

Given U14A U112A , state its recorded self-cleavage.
1.33

Given U12C U73G , state its recorded self-cleavage.
1.29

Given G93C , state its recorded self-cleavage.
0.05

Given G127U A140G , state its recorded self-cleavage.
1.27

Given U12G A121G , state its recorded self-cleavage.
1.4

Given U20G C37A , state its recorded self-cleavage.
1.04

Given U1A A117U , state its recorded self-cleavage.
1.48

Given U15A A121U , state its recorded self-cleavage.
1.35

Given A6U U46C , state its recorded self-cleavage.
0.14

Given A77G U132A , state its recorded self-cleavage.
2.34

Given U26A U112A , state its recorded self-cleavage.
0.9

Given U112C U119C , state its recorded self-cleavage.
1.6

Given A129G U132A , state its recorded self-cleavage.
1.54

Given U87C U100A , state its recorded self-cleavage.
0.1

Given U1C G34A , state its recorded self-cleavage.
0.75

Given U15A A22U , state its recorded self-cleavage.
1.16

Given G4A U96C , state its recorded self-cleavage.
0.15

Given A2U C76U , state its recorded self-cleavage.
1.07

Given U96A C145A , state its recorded self-cleavage.
0.06

Given G21C U143C , state its recorded self-cleavage.
1.97

Given C18U U100C , state its recorded self-cleavage.
1.53

Given C19U U143C , state its recorded self-cleavage.
0.98

Given C28U A136G , state its recorded self-cleavage.
0

Hey, just so you know, these numbers are from the RNAGym collection of RNA variant scans (doi:10.7554/elife.90254).
